Measured values drawn from ChEMBL document CHEMBL6078646 for this set.

- Measured on: Lysine-specific histone demethylase 1A (Homo sapiens)
- Test method notes: Inhibition of recombinant His-tagged LSD1 (157 to 852 residues) (unknown origin) expressed in Escherichia coli BL21 (DE3) cells using H3K4me2 peptide as substrate incubated for 30 mins by fluorescence microplate reader analysis
Readout: IC50 (µM)

Compound	Readout	Readout number
C[C@@H]1O[C@H](OC[C@H]2O[C@@H](OCCc3ccc(O)c(O)c3)[C@H](O)[C@@H](OC(=O)/C=C/c3ccc(O)c(O)c3)[C@@H]2O)[C@H](O)[C@H](O)[C@H]1O	IC50	1.58
COc1ccc([C@@H]2OC[C@H]3[C@@H]2CO[C@@H]3c2ccc(O[C@H]3O[C@H](CO)[C@@H](O)[C@H](O)[C@H]3O)c(OC)c2)cc1OC	IC50	5.51
C[C@@H]1O[C@@H](OC[C@H]2O[C@@H](OCCc3ccc(O)c(O)c3)[C@H](O)[C@@H](O)[C@@H]2OC(=O)/C=C/c2ccc(O)c(O)c2)[C@H](O)[C@H](O)[C@H]1O [FORSYTHIASIDE]	IC50	8.08
CC(=O)O[C@H]1C(=O)[C@@]2(C)[C@H]([C@H](OC(=O)c3ccccc3)[C@]3(O)C[C@H](OC(=O)[C@H](O)[C@@H](NC(=O)c4ccccc4)c4ccccc4)C(C)=C1C3(C)C)[C@]1(OC(C)=O)CO[C@@H]1C[C@@H]2O	IC50	0.0296
C[C@@H]1O[C@@H](O[C@@H]2[C@@H](O)[C@H](OCCc3ccc(O)c(O)c3)O[C@H](CO)[C@H]2OC(=O)/C=C/c2ccc(O)c(O)c2)[C@H](O)[C@H](O)[C@H]1O [ACETOSIDE]	IC50	3.6

====

- Test method notes: Acute toxicity in female ICR mouse assessed as lethal dose administered intraperitoneally for 14 days
- Protocol conditions: in vivo, route ip, time 14 day

Compound	LD50 at 336 h
C[C@@H]1O[C@H](OC[C@H]2O[C@@H](OCCc3ccc(O)c(O)c3)[C@H](O)[C@@H](OC(=O)/C=C/c3ccc(O)c(O)c3)[C@@H]2O)[C@H](O)[C@H](O)[C@H]1O	> 600 mg/kg

====

- Measured on: UniProt O60341
pKd: −log10 of the molar value.
Readout: pKd

Compound	Readout number
C[C@@H]1O[C@H](OC[C@H]2O[C@@H](OCCc3ccc(O)c(O)c3)[C@H](O)[C@@H](OC(=O)/C=C/c3ccc(O)c(O)c3)[C@@H]2O)[C@H](O)[C@H](O)[C@H]1O	5.28

====

Reported Retention_time values follow for various compounds
- Test method notes: Retention time of the compound by HPLC-MS/MS analysis
- Format: physicochemical

Compound	Retention_time [min]
C[C@@H]1O[C@@H](O[C@@H]2[C@@H](O)[C@H](OCCc3ccc(O)c(O)c3)O[C@H](CO)[C@H]2OC(=O)/C=C/c2ccc(O)c(O)c2)[C@H](O)[C@H](O)[C@H]1O [ACETOSIDE]	25.8
C[C@@H]1O[C@H](OC[C@H]2O[C@@H](OCCc3ccc(O)c(O)c3)[C@H](O)[C@@H](OC(=O)/C=C/c3ccc(O)c(O)c3)[C@@H]2O)[C@H](O)[C@H](O)[C@H]1O	18.4
COc1ccc([C@@H]2OC[C@H]3[C@@H]2CO[C@@H]3c2ccc(O[C@H]3O[C@H](CO)[C@@H](O)[C@H](O)[C@H]3O)c(OC)c2)cc1OC	40.6
C[C@@H]1O[C@@H](OC[C@H]2O[C@@H](OCCc3ccc(O)c(O)c3)[C@H](O)[C@@H](O)[C@@H]2OC(=O)/C=C/c2ccc(O)c(O)c2)[C@H](O)[C@H](O)[C@H]1O [FORSYTHIASIDE]	31.9
